molecular target: HLA-A*02:01 (Homo sapiens, UniProt P04439, D140Y/D185E/D98H/E176V/E277Q/G131W/G231S/I119V/I121R/I166T/I218V/L300P/L318F/N151K/N90K/P208A/P217A/Q86G/Q94H/R138H/R169H/T345S); experiment: MHC binding assay: UV-ligand exchange with β2m ELISA (peptide exchange yield); conditions: MHC class I binding score; binding to HLA-A*02:01 ranged by peptide exchange yield (UV-ligand exchange, β2m ELISA)

# substance, Peptide Exchange
measured = [
    ("298 (IILPVEVEV; listed as Homo sapiens) [compound 298]", "″+++″ (≥50 = +++)"),
    ("235 (GLDDLLLFL; listed as Homo sapiens) [compound 235]", "″+++″ (≥50 = +++)"),
]
